- testSystem: T1, postfusion RSV F ectodomain (F ΔFP), subtype A (respiratory syncytial virus subtype A, UniProt P03420 26-109; P03420 147-524)
- T1 construct: extracellular domain; also called Postfusion subtype A
- testDescription: BLI, IgG on sensor
Kindly apply the following: fulfilled if Kd is less than 0.3 nM, not fulfilled in every other case.

Input: Regarding ADI-15605 (antibody, V domains shown, IgG) VH: QVQLVQSGPEVKKPGESLKISCKGSGYTFTTYWIGWVRQRPGKGLEWMGIIHPGDSDTRYSPSLQGQVTISVDKSINTAYLQWRSLKASDTGMYYCARFEYGDFGNDFWGQGTLVTVSS VL: NFMLTQPHSVSESPGKTVTISCSRSSGSIANNYVQWYQQRPGSSPTTVIYEDNQRPSGVPDRFSGSIDSSSNSASLTISGLKTEDEADYYCQSYDSSNHRVFGGGTKLTVL , kindly confirm whether its Kd is beneath 0.3 nM.
Output: fulfilled

Input: Record: ADI-15601 (antibody, V domains shown, IgG) VH: EVQLLETGGGLVKPGGSLRLSCEATGFTFSDFAMSWVRQAPGKGLEWVSLIKSSDYPYYADSVRGRFTISRDNSKNTLYLRMDNLRADDTAVYYCAKDADFWSGEAYNGGYNFDSWGQGTLVTVSS VL: EIVLTQSPATLSVSPGERATLSCRASQSIGTNLAWYQQKPGQAPRLLIFGASTRATGIPARFTGSGSGTEFTLTIGSLQSEDFAVYYCQQYNQWPPITFGGGTKVEIK
Output: fulfilled

Input: // query: ADI-15628 (antibody, V domains shown, IgG) VH: QVQLVQSGGGVVQPGRSLRLSCAASGFTFSDFSMHWVRQAPGKGLEWVALISNDGSNKYYSDSLKGSFIISRDNSKNTLYLQLNSLGAEDTALYYCARDAVPHYDYVWGNFDYWGPGTLVTVSS VL: QPVLTQPASVSASPGQSITISCTGTSSDVGGYNYVSWYQQHPGKAPKLIVYEVSNRPSGVSNRFSGSKSGNTASLTISGLQADDEADYYCSSYTSFTPVVFGGGTKVTVL
Output: not fulfilled

Input: Follow-up entry: ADI-15646 (antibody, V domains shown, IgG; also called Antibody Number 210) VH: EVQLLESGGGLIQPGGSLRLSCGASGFTVTGNYMHWVRQAPGKGLEWVSVIYAGSSTYYADSVRGRFTISRDKARNTLFLQMNRLRAEDTAVYYCARAGVVGEDRSGWYGPDYFHGLDVWGQGTTVTVSS VL: ETTLTQSPGTLSLSPGERATLSCRASQSIRNNYLAWYQQKPGQPPRLLIYGESRRATGIPGRFSGSGSGTDFTLTISSLEPEDFAVYYCQQYGGSPYTFGQGTKVDIK
Output: not fulfilled

These entries and their values trace back to patent US20220144922A1.
